biological target: T1, human nerve growth factor (human, UniProt P01138 122-241); assay: BIAcore SPR screen, Fab over immobilised human NGF
T1 construct: Immobilised on CM5 chips for BIAcore, soluble in neuron survival assays; also called human NGF; hNGF
T1 sequence (P01138 122-241 limits assumed): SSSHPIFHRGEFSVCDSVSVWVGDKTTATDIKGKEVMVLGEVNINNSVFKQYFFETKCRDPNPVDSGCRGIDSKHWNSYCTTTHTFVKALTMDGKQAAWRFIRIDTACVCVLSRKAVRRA
measurement label: koff (s⁻¹)
Respond numerically; units are s⁻¹ and should not be typed.

{"binder": "light chain library clone L129 (Fab, V domains shown, paired with the CDR-grafted heavy chain; See note of m8) VH: QVQLQESGPGLVKPSETLSLTCTVSGFSLIGYDINWIRQPPGKGLEWIGMIWGDGTTDYNSALKSRVTISKDTSKNQFSLKLSSVTAADTAVYYCARGGYYYGTSYYFDYWGQGTLVTVS VL: DIQMTQSPSSLSASVGDRVTITCRASQSISNNLNWYQQKPGKAPKLLIYYTSRFHSGVPSRFSGSGSGTDFTFTISSLQPEDIATYYCQQSKTLPYTFGQGTKLEIKR", "units of measure": "s⁻¹", "koff": 0.00045}

So, heavy chain library clone H109 (Fab, V domains shown, paired with the CDR-grafted light chain; See note of m8) VH: QVQLQESGPGLVKPSETLSLTCTVSGFSLIGYDSNWIRQPPGKGLEWIGIIWGDGTTDYNSALKSRVTISKDTSKNQFSLKLSSVTAADTAVYYCARGGYYYGTSYYFDYWGQGTLVTVS VL: DIQMTQSPSSLSASVGDRVTITCRASQDISNHLNWYQQKPGKAPKLLIYYISRFHSGVPSRFSGSGSGTDFTFTISSLQPEDIATYYCQQSKTLPYTFGQGTKLEIKR ? Its koff was 0.00016

Values from patent US20170088610A1
